Data origin, for the record: ChEMBL document CHEMBL4354822

Assay: Half life in Sprague-Dawley rat at 10 mg/kg, po via gavage administration measured after 24 hrs by LCMS analysis
Type: ADME, organism-based
Settings: in vivo
Measured metric: half-life (h)
Express your answer in h, writing the number without its unit.

Enquiry: So what's the measured half-life for this one? `Cl.N#Cc1ccc(Nc2nccc(Nc3c(F)cc(-c4ccc(C#N)cc4)cc3F)n2)cc1`
Return: 3.18

----------
Test: Metabolic stability in human liver microsomes at 1 uM measured up to 45 mins in presence of NADPH by LC/MS/MS analysis
Type: ADME, Microsome
Measured metric: half-life at 1 µM (min)
Give your result in min as a bare value.

Enquiry: Value lookup for half-life at 1 µM; key = `Cl.N#Cc1ccc(Nc2nccc(Nc3c(F)cc(-c4ccc(C#N)cc4)cc3F)n2)cc1`
Return: 31.6

----------
Listed here: items and their measured solubility at 24 h.
Test: Aqueous solubility of compound at 2 mg measured for 24 hrs by HPLC analysis
Type: physicochemical
Details: aqueous medium

Worked examples follow.
# Structure smiles, solubility at 24 h
records = [
    ("CS(=O)(=O)O.N#Cc1ccc(Nc2nccc(Nc3c(F)cc(-c4ccc(C#N)cc4)cc3F)n2)cc1", "0.88 µg/mL"),
    ("N#Cc1ccc(Nc2nccc(Nc3c(F)cc(-c4ccc(C#N)cc4)cc3F)n2)cc1", "< 1 µg/mL"),
]

Enquiry: Which solubility at 24 h value belongs to `N#Cc1ccc(Nc2nccc(Nc3c(F)cc(-c4ccc(C#N)cc4)cc3F)n2)cc1.O=CO` ?
Return: 0.35 µg/mL

Enquiry: For the molecule shown here, `Cl.N#Cc1ccc(Nc2nccc(Nc3c(F)cc(-c4ccc(C#N)cc4)cc3F)n2)cc1` , give the reported solubility at 24 h.
Return: 5.6 µg/mL

Enquiry: Bench note: what solubility at 24 h did `N#Cc1ccc(Nc2nccc(Nc3c(F)cc(-c4ccc(C#N)cc4)cc3F)n2)cc1.O=S(=O)(O)c1ccccc1` show?
Return: 0.39 µg/mL

----------
Assay: Tmax in Sprague-Dawley rat at 5 mg/kg, po via gavage administration measured after 24 hrs by LCMS analysis
Assay type: ADME, organism-based
Details: in vivo
Measured metric: Tmax (h)
Answer format: numeric, h implied, no suffix.

Enquiry: Quick one: Tmax for `Cl.N#Cc1ccc(Nc2nccc(Nc3c(F)cc(-c4ccc(C#N)cc4)cc3F)n2)cc1` ?
Return: 5.33

----------
Assay: AUC in Sprague-Dawley rat at 5 mg/kg, po via gavage administration measured after 24 hrs by LCMS analysis
Format: ADME, organism-based
Parameters: time < 24 hr, dose 5 mg/kg, route oral
Details: in vivo
Measured metric: AUC at 24 h (ng·h/mL)
Numbers only; they are read as ng·h/mL.

Enquiry: Return reported AUC at 24 h; argument: `Cl.N#Cc1ccc(Nc2nccc(Nc3c(F)cc(-c4ccc(C#N)cc4)cc3F)n2)cc1`
Return: 7890

----------
Experiment: MRTinfinity in Sprague-Dawley rat at 5 mg/kg, po via gavage administration measured after 24 hrs by LCMS analysis
Format: ADME, organism-based
Details: in vivo
Measured metric: MRT inf (h)
# unit: h | format: bare number

Enquiry: What value of MRT inf has been recorded for this entry: `Cl.N#Cc1ccc(Nc2nccc(Nc3c(F)cc(-c4ccc(C#N)cc4)cc3F)n2)cc1`
Return: 8.37

----------
Experiment: Oral bioavailability in Sprague-Dawley rat at 5 mg/kg measured after 24 hrs by LCMS analysis
Format: ADME, organism-based
Conditions: in vivo
Measured metric: bioavailability (%)
Give a bare numeral; the unit % is implied.

Enquiry: Which measured bioavailability value corresponds to `Cl.N#Cc1ccc(Nc2nccc(Nc3c(F)cc(-c4ccc(C#N)cc4)cc3F)n2)cc1` ?
Return: 44

----------
Test: MRTinfinity in Sprague-Dawley rat at 10 mg/kg, po via gavage administration measured after 24 hrs by LCMS analysis
Assay type: ADME, organism-based
Settings: in vivo
Measured metric: MRT inf (h)
Reply numerically in h, unit not repeated.

Enquiry: Recorded MRT inf for `Cl.N#Cc1ccc(Nc2nccc(Nc3c(F)cc(-c4ccc(C#N)cc4)cc3F)n2)cc1` , please?
Return: 8.27

----------
Test: Selectivity index, ratio of CC50 for human MT4 cells to EC50 for antiviral activity against HIV1 3B infected in human MT4 cells incubated for 5 days by MTT assay
Type: toxicity, cell-based
Conditions: MT4 cells (uninfected for CC50; HIV-1 3B infected for EC50)
Measured metric: selectivity ratio at 120 h

Below, 4 molecules whose answers are already recorded.
# Structure smiles, Result
rows = [
    ("N#Cc1ccc(Nc2nccc(Oc3ccc(-c4ccc(C#N)cc4)cc3Cl)n2)cc1", "> 179000"),
    ("N#Cc1ccc(Nc2nccc(Oc3c(F)cc(-c4ccc(C#N)cc4)cc3F)n2)cc1", "> 89300"),
    ("Cc1cc(-c2ccc(C#N)cc2)ccc1Oc1ccnc(Nc2ccc(C#N)cc2)n1", "> 122000"),
    ("N#Cc1ccc(Nc2nccc(Oc3ccc(-c4ccc(C#N)cc4)c(Cl)c3)n2)cc1", 3130),
]

Next:
Enquiry: Recorded selectivity ratio at 120 h for `N#Cc1ccc(Nc2nccc(Oc3ccc(-c4ccc(C#N)cc4)c(F)c3F)n2)cc1` , please?
Return: > 19200
